Data credit: ChEMBL document CHEMBL1795235

The following molecules are shown together with reported MIC values.
# Test system: Staphylococcus aureus
# ASSAY DETAILS: Antibacterial activity against methicillin-resistant Staphylococcus aureus N315 after 24 hrs by microdilution method
# Type: functional
# TEST CONDITIONS: N315, 24 h
METRIC: MIC (µg/mL)

>>> readout_number("CCOc1ccc(CCC(=O)OC[C@H]2O[C@@H](Oc3c(-c4ccc(O)c(O)c4)oc4cc(O)cc(O)c4c3=O)[C@H](OC(=O)CCc3ccc(OCC)cc3)[C@@H](O)[C@H]2O)cc1")
2
>>> readout_number("O=C(CCc1ccc(F)cc1)O[C@H]1[C@H](Oc2c(-c3ccc(O)c(O)c3)oc3cc(O)cc(O)c3c2=O)O[C@H](CO)[C@@H](O)[C@@H]1OC(=O)CCc1ccc(F)cc1")
0.25
>>> readout_number("CC(=O)OC[C@H]1O[C@@H](Oc2cc(O)c3c(=O)c(O[C@@H]4O[C@H](COC(C)=O)[C@H](OC(C)=O)[C@H](OC(C)=O)[C@H]4OC(C)=O)c(-c4ccc(O)c(O)c4)oc3c2)[C@H](OC(C)=O)[C@@H](OC(C)=O)[C@H]1OC(C)=O")
128
>>> readout_number("CCn1cc(C(=O)O)c(=O)c2cc(F)c(N3CCNCC3)cc21 [NORFLOXACIN]")
2
>>> readout_number("CO[C@@H]1[C@@H](OC(N)=O)[C@@H](O)[C@H](Oc2ccc3c(O)c(NC(=O)c4ccc(O)c(CC=C(C)C)c4)c(=O)oc3c2C)OC1(C)C [NOVOBIOCIN]")
0.13
